System: 454973-116-R2-J3-PDC complex spheroid viability
assaySummary: Anticancer human tumor 454973-116-R2-J3-PDC patient-derived pancreatic carcinoma cell line growth inhibition [POLQ]
settings: second compound 3.16 µM; first compound 0.1 µM; stronger effect = lower value
Entries annotated with measured viability, T/C
Please reply with the bare figure in % and do not write the unit itself.

>  <compound>
CC1COCCN1c1cc(-c2ccnn2C)c2ccnc(-c3ccn[nH]3)c2n1 (stereo not drawn) + COC1C(OC(N)=O)C(O)C(Oc2ccc3c(O)c(NC(=O)c4ccc(O)c(CC=C(C)C)c4)c(=O)oc3c2C)OC1(C)C

>  <viability, T/C [%]>
77.9

$$$$
>  <compound>
COc1cccc2c1C(=O)c1c(O)c3c(c(O)c1C2=O)CC(O)(C(=O)CO)CC3OC1CC(N)C(O)C(C)O1 (stereo not drawn) + Nc1ccc(C#CCN(C(=O)Cc2ncc(C(F)(F)F)cc2C(F)(F)F)c2ccc(F)cc2)nn1

>  <viability, T/C [%]>
17.8

$$$$

The record that follows has no viability, T/C shown yet.
Exercise: Please report the measured viability, T/C for Nc1ccn(C2OC(CO)C(O)C2(F)F)c(=O)n1 (stereo not drawn) + Cc1cccc(N(C)C(=O)C2C(O)CCN2c2nc(C)cc(C(F)(F)F)c2C#N)c1
Key: 13.5

----------
Test system: 454973-116-R2-J3-PDC complex spheroid viability
assaySummary: Anticancer human tumor 454973-116-R2-J3-PDC cell line growth inhibition [POLQ];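 further: spheroids exposed to drugs for seven days before measurement; percent viability relative to DMSO vehicle control wells taken as 100%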
settings: second compound 10 µM; first compound 3.16 µM; stronger effect = lower value
quantityName: viability, T/C (%)
Provide only the numeric value, understood in %.

Solved entries:
>  <compound>
CCc1cc2c(N3CCc4c(cc(Cn5ccnc5)cc4-c4cn(C)nc4C(F)(F)F)C3=O)ccnc2c(OC)n1 + COC1C(OC(N)=O)C(O)C(Oc2ccc3c(O)c(NC(=O)c4ccc(O)c(CC=C(C)C)c4)c(=O)oc3c2C)OC1(C)C

>  <assaySystem>
454973-116-R2-J3-PDC complex spheroid viability

>  <unitOfMeasure>
%

>  <viability, T/C>
84

$$$$
>  <compound>
CC(C)n1c(=O)n(C)c2cnc3cc(F)c(-c4ccc(OCCCN5CCCCC5)nc4)cc3c21 + Cc1cccc(N(C)C(=O)C2C(O)CCN2c2nc(C)cc(C(F)(F)F)c2C#N)c1

>  <assaySystem>
454973-116-R2-J3-PDC complex spheroid viability

>  <unitOfMeasure>
%

>  <viability, T/C>
97.3

$$$$
>  <compound>
Nc1ccn(C2OC(CO)C(O)C2(F)F)c(=O)n1 (centres undefined) + Cc1cccc(N(C)C(=O)C2C(O)CCN2c2nc(C)cc(C(F)(F)F)c2C#N)c1

>  <assaySystem>
454973-116-R2-J3-PDC complex spheroid viability

>  <unitOfMeasure>
%

>  <viability, T/C>
13.8

$$$$

Then this compound:
Exercise: Query viability, T/C for O=C(c1cc(Cc2n[nH]c(=O)c3ccccc23)ccc1F)N1CCN(C(=O)C2CC2)CC1 + Cc1cccc(N(C)C(=O)C2C(O)CCN2c2nc(C)cc(C(F)(F)F)c2C#N)c1
Key: 92

----------
Test system: 454973-116-R2-J3-PDC complex spheroid viability
assaySummary: Anticancer human tumor 454973-116-R2-J3-PDC cell line growth inhibition [POLQ];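 further: spheroids exposed to drugs for seven days before measurement; percent viability relative to DMSO vehicle control wells taken as 100%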
settings: second compound 0.316 µM; first compound 0.1 µM; stronger effect = lower value
quantityName: viability, T/C (%)
Give your result in % as a bare value.

Some solved entries appear below for comparison.
>  <compound>
Cn1ncnc1[C@H]1c2n[nH]c(=O)c3cc(F)cc(c23)N[C@@H]1c1ccc(F)cc1 + Nc1ccc(C#CCN(C(=O)Cc2ncc(C(F)(F)F)cc2C(F)(F)F)c2ccc(F)cc2)nn1

>  <assaySystem>
454973-116-R2-J3-PDC complex spheroid viability

>  <viability, T/C (%)>
89.2

$$$$
>  <compound>
CC[C@@]1(O)C(=O)OCc2c1cc1n(c2=O)Cc2cc3c(CN(C)C)c(O)ccc3nc2-1 + COC1C(OC(N)=O)C(O)C(Oc2ccc3c(O)c(NC(=O)c4ccc(O)c(CC=C(C)C)c4)c(=O)oc3c2C)OC1(C)C

>  <assaySystem>
454973-116-R2-J3-PDC complex spheroid viability

>  <viability, T/C (%)>
13.8

$$$$
>  <compound>
O=C(c1cc(Cc2n[nH]c(=O)c3ccccc23)ccc1F)N1CCN(C(=O)C2CC2)CC1 + Nc1ccc(C#CCN(C(=O)Cc2ncc(C(F)(F)F)cc2C(F)(F)F)c2ccc(F)cc2)nn1

>  <assaySystem>
454973-116-R2-J3-PDC complex spheroid viability

>  <viability, T/C (%)>
105

$$$$
>  <compound>
C=CCn1c(=O)c2cnc(Nc3ccc(N4CCN(C)CC4)cc3)nc2n1-c1cccc(C(C)(C)O)n1 + Cc1cccc(N(C)C(=O)C2C(O)CCN2c2nc(C)cc(C(F)(F)F)c2C#N)c1

>  <assaySystem>
454973-116-R2-J3-PDC complex spheroid viability

>  <viability, T/C (%)>
103

$$$$
>  <compound>
Nc1ccn(C2OC(CO)C(O)C2(F)F)c(=O)n1 (stereo unspecified) + Cc1cccc(N(C)C(=O)C2C(O)CCN2c2nc(C)cc(C(F)(F)F)c2C#N)c1

>  <assaySystem>
454973-116-R2-J3-PDC complex spheroid viability

>  <viability, T/C (%)>
13.8

$$$$

Now let's try a different one.
Exercise: Report viability, T/C, nothing else, for this compound: CC1COCCN1c1cc(-c2ccnn2C)c2ccnc(-c3ccn[nH]3)c2n1 (stereo unspecified) + COC1C(OC(N)=O)C(O)C(Oc2ccc3c(O)c(NC(=O)c4ccc(O)c(CC=C(C)C)c4)c(=O)oc3c2C)OC1(C)C
Key: 77.2

----------
Entries and their measured viability, T/C follow.
Tested on: 454973-116-R2-J3-PDC complex spheroid viability
assaySummary: Anticancer human tumor 454973-116-R2-J3-PDC cell line growth inhibition [POLQ];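 further: spheroids exposed to drugs for seven days before measurement; percent viability relative to DMSO vehicle control wells taken as 100%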
settings: second compound 1 µM; first compound 3.16 µM; stronger effect = lower value
Form entry: value (%) — number only.

>  <compound>
C#Cc1c(F)ccc2cc(O)cc(-c3ncc4c(N5CC6CCC(C5)N6)nc(OCC56CCCN5CC(F)C6)nc4c3F)c12 (stereo unspecified) + Cc1cccc(N(C)C(=O)C2C(O)CCN2c2nc(C)cc(C(F)(F)F)c2C#N)c1

>  <assaySystem>
454973-116-R2-J3-PDC complex spheroid viability

>  <reportedValue>
26.5

$$$$

Exercise: Give the measured viability, T/C for CC(C)n1c(=O)n(C)c2cnc3cc(F)c(-c4ccc(OCCCN5CCCCC5)nc4)cc3c21 + COC1C(OC(N)=O)C(O)C(Oc2ccc3c(O)c(NC(=O)c4ccc(O)c(CC=C(C)C)c4)c(=O)oc3c2C)OC1(C)C
Key: 100

Exercise: Annotate the compound COc1cc2cc(C(=O)CCC(=O)O)sc2cc1OC + COC1C(OC(N)=O)C(O)C(Oc2ccc3c(O)c(NC(=O)c4ccc(O)c(CC=C(C)C)c4)c(=O)oc3c2C)OC1(C)C with its measured viability, T/C.
Key: 107

Exercise: Name the recorded viability, T/C of the item COc1cc(C2c3cc4c(cc3C(OC3OC5COC(C)OC5C(O)C3O)C3COC(=O)C23)OCO4)cc(OC)c1O (stereo unspecified) + COC1C(OC(N)=O)C(O)C(Oc2ccc3c(O)c(NC(=O)c4ccc(O)c(CC=C(C)C)c4)c(=O)oc3c2C)OC1(C)C in your answer.
Key: 21.9

Exercise: Complete the entry with viability, T/C for Nc1ccn(C2OC(CO)C(O)C2(F)F)c(=O)n1 (stereo unspecified) + Cc1cccc(N(C)C(=O)C2C(O)CCN2c2nc(C)cc(C(F)(F)F)c2C#N)c1
Key: 12.5

Exercise: Read off the recorded viability, T/C for COc1ccc([C@@H](O)c2cc(-c3ncnc4cc(N5CCOCC5)ccc34)c(F)cc2Cl)nn1 + Cc1cccc(N(C)C(=O)C2C(O)CCN2c2nc(C)cc(C(F)(F)F)c2C#N)c1
Key: 71.5

Exercise: Fill in viability, T/C for record COc1ccc([C@@H](O)c2cc(-c3ncnc4cc(N5CCOCC5)ccc34)c(F)cc2Cl)nn1 + COC1C(OC(N)=O)C(O)C(Oc2ccc3c(O)c(NC(=O)c4ccc(O)c(CC=C(C)C)c4)c(=O)oc3c2C)OC1(C)C
Key: 65.6

Exercise: For the compound CNCc1ccc(-c2[nH]c3cc(F)cc4c3c2CCNC4=O)cc1 + Nc1ccc(C#CCN(C(=O)Cc2ncc(C(F)(F)F)cc2C(F)(F)F)c2ccc(F)cc2)nn1 , give its measured viability, T/C value.
Key: 110

----------
Test system: 454973-116-R2-J3-PDC complex spheroid viability
assaySummary: Anticancer human tumor 454973-116-R2-J3-PDC cell line growth inhibition [POLQ];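 further: spheroids exposed to drugs for seven days before measurement; percent viability relative to DMSO vehicle control wells taken as 100%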
settings: second compound 3.16 µM; first compound 0.1 µM; stronger effect = lower value
# viability, T/C per entry
Quick reminder: number only, in %, skip the unit.

Sample answers from the record:
>  <compound>
CCCS(=O)(=O)Nc1ccc(F)c(C(=O)c2c[nH]c3ncc(-c4ccc(Cl)cc4)cc23)c1F + COC1C(OC(N)=O)C(O)C(Oc2ccc3c(O)c(NC(=O)c4ccc(O)c(CC=C(C)C)c4)c(=O)oc3c2C)OC1(C)C

>  <assaySystem>
454973-116-R2-J3-PDC complex spheroid viability

>  <unitOfMeasure>
%

>  <reportedValue>
109

$$$$
>  <compound>
C=CC(=O)N1CCN(c2nc(=O)n(-c3c(C)ccnc3C(C)C)c3nc(-c4c(O)cccc4F)c(F)cc23)C(C)C1 (centres undefined) + COC1C(OC(N)=O)C(O)C(Oc2ccc3c(O)c(NC(=O)c4ccc(O)c(CC=C(C)C)c4)c(=O)oc3c2C)OC1(C)C

>  <assaySystem>
454973-116-R2-J3-PDC complex spheroid viability

>  <unitOfMeasure>
%

>  <reportedValue>
101

$$$$
>  <compound>
Nc1ccn(C2OC(CO)C(O)C2(F)F)c(=O)n1 (centres undefined) + Nc1ccc(C#CCN(C(=O)Cc2ncc(C(F)(F)F)cc2C(F)(F)F)c2ccc(F)cc2)nn1

>  <assaySystem>
454973-116-R2-J3-PDC complex spheroid viability

>  <unitOfMeasure>
%

>  <reportedValue>
6.2

$$$$

// switching to the query compound
Exercise: State viability, T/C on 454973-116-R2-J3-PDC complex spheroid viability. Entry: Nc1ccn(C2OC(CO)C(O)C2(F)F)c(=O)n1 (centres undefined) + COC1C(OC(N)=O)C(O)C(Oc2ccc3c(O)c(NC(=O)c4ccc(O)c(CC=C(C)C)c4)c(=O)oc3c2C)OC1(C)C
Key: 15.2

Source: PubChem BioAssay AID1963846
